Target: T1, GFP-9S library array, motif 4 ND N98W;D124F (synthetic construct, N98W;D124F)
T1 chain: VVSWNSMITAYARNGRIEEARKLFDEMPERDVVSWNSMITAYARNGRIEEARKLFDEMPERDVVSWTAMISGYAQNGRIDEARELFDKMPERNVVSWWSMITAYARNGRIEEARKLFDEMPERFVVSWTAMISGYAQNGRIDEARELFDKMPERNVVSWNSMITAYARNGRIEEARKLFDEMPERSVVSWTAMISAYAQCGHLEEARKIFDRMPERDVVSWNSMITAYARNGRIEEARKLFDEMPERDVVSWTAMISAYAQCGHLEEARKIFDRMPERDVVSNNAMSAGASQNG
Experiment: high-throughput RNA pulldown from lysate on Ni-NTA beads; HRP: 50 mM Tris pH 8, 150 mM NaCl, 1 mM beta-mercaptoethanol, 50 ug/ml BSA, 3 ug/ml yeast RNA, 0.5% heparin; ITC and FP: Tris pH 8, 200 mM KCl, 5% glycerol; MST: 50 mM Tris pH 8, 200 mM NaCl, 1 mM DTT, BSA, heparin, 0.05% Tween 20
Settings: tags: N-terminal His-eGFP; label: 5' IRDye 800CW
measurement_type: Kd (nM)
Express your answer in nM, writing the number without its unit.

| binder | reading |
| --- | --- |
| AUUAUACGUGA (ssRNA) [IR-rpoA-U] | 273 |

Entry AUUAAACGUGA (ssRNA) [IR-rpoA-A] ; Kd = 274
